Source listed as patent US9732046B2.

System: K562 (Chronic Myeloid Leukemia)
protocol: Cellular growth inhibition assay (MTT), K562
Assay type: cell-based
measurement-parameters: Homo sapiens, Table 1, 40 hr incubation
// inhibition at 20 µM lookup, one value per entry

CCCC(Nc1cncc(-c2ccc(OCCN(CC)CC)c(OC)c2)n1)c1ccccc1 (centres unmarked) :: > 50%
CCCC(Nc1cncc(-c2ccc(C(=O)NCCCN3CCOCC3)cc2)n1)c1ccccc1 (centres unmarked) :: < 50%
CCCC(Nc1cncc(-c2ccc(NC(=O)C3CCNCC3)c(OC)c2)n1)c1cccnc1 (centres unmarked) :: > 50%
CCCC(Nc1cncc(-c2ccc(CN3CCC[C@H]3CO)cc2)n1)c1ccccc1 (some centres unmarked) :: > 50%

# ---- query molecule ----
Q: For the molecule CCCC(Nc1cncc(-c2ccc(NC(=O)NCC)c(OC)c2)n1)c1ccccn1 (centres unmarked) , what inhibition at 20 µM is on record?
Result: > 50%
